- target: UniProtKB Q9Y5N1
- Sequence (Q9Y5N1 whole entry): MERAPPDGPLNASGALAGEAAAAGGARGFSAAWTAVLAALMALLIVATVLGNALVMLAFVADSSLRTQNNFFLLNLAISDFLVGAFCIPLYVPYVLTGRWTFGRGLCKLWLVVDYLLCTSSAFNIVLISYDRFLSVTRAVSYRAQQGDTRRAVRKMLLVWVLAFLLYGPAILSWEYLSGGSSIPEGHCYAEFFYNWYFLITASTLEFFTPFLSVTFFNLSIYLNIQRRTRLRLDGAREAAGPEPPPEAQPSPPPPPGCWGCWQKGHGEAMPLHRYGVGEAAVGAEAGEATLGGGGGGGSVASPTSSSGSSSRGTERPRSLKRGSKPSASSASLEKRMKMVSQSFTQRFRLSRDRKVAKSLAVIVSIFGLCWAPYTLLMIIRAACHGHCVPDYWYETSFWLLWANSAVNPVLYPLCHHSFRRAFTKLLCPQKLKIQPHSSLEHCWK
- assayProcedure: H3 receptor binding test (R(−)-α-methyl[3H]histamine)
- Parameters: purchased Euroscreen ES-392-M; host or cells: CHO-K1
- conditionParameters: inhibition of R(−)-α-methyl[3H]histamine (2 nM) binding, membrane of human H3 receptor-expressing CHO-K1 cells
- Procedure: A membrane preparation of human H3 receptor-expressing CHO-K1 cells (Euroscreen, ES-392-M, 15 μg protein/200 μl), R(−)-α-methyl[^3H]histamine (Amersham, TRK-1017, specific activity: 1.74 TBq/mmol, 2 nM) and a test drug were reacted at room temperature for 1 hour. […] After washing, the glass filter was dried and a scintillator was added thereto, followed by measurement of radioactivity on the filter using a liquid scintillation counter. […]
propertyName: pIC50
Lab note: report pIC50 as minus log10 of the concentration in molar units, number only.

C[C@@H]1CCCN1CCCOc1ccc(-n2cc(C(=O)c3ccc(F)cc3)cn2)cc1; 8.66

Prompt line: Form field: reported pIC50 of C[C@@H]1CCCN1CCCOc1ccc(-n2cc(NC(=O)Cc3cccnc3)cn2)cc1
Response line: 8.85

Prompt line: Next molecule up: C[C@@H]1CCCN1CCCOc1ccc(-n2cc(C(=O)c3ccncc3)cn2)cc1
Response line: 8.59

Prompt line: Next molecule up: C[C@@H]1CCCN1CCCOc1ccc(-n2cc(NC(=O)Cc3ccncc3)cn2)cc1
Response line: 8.82

Prompt line: Next molecule up: C[C@@H]1CCCN1CCCOc1ccc(-n2cc(NS(C)(=O)=O)cn2)cc1
Response line: 8.39

Prompt line: Next molecule up: CC(=O)c1cnn(-c2ccc(OCCCN3CCC[C@H]3C)cc2)c1
Response line: 8.80

Prompt line: Next molecule up: C[C@@H]1CN(C(=O)c2cnn(-c3ccc(OCCCN4CCC[C@H]4C)cc3)c2)C[C@H](C)O1
Response line: 8.21
